These data points were gathered from the kinase profiling compilation of Christmann-Franck et al. (2016).

system_under_test: AURKA (human) (UniProt O14965)
Sequence (O14965 whole entry, looked up): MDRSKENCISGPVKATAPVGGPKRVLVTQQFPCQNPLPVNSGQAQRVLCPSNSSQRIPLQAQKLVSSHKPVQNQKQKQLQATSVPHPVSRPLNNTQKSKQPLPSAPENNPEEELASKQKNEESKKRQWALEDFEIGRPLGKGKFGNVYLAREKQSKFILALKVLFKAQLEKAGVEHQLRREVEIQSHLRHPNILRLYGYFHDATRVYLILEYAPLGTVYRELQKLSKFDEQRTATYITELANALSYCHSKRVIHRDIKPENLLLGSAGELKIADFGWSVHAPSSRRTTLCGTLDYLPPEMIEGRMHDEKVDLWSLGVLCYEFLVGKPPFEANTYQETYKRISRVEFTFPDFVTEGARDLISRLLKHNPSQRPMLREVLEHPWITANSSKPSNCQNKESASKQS
test: radiometric filter-binding kinase assay
stated_conditions: compound 10.0 µM
Label met when residual activity >= 90%; otherwise not met.

Is reported residual activity greater than or equal to 90% here: NC(=O)c1cc(-c2ccnc(NC3CCCCC3)c2)nc(N2CCNCC2)c1
met

I'd appreciate it if you could say whether CN1C(=O)[C@@H](Cc2c[nH]c3ccccc23)NC1=S has residual activity at least equal to 90%.
met

Quick check: does NC1(c2ccc(-c3nc4ccn5c(=O)[nH]nc5c4cc3-c3ccccc3)cc2)CCC1 have residual activity greater than or equal to 90%?
met

Exam item: decide whether the reported residual activity for O=S(=O)(c1ccc(F)c2nonc12)N1CCN(c2ncc(C(F)(F)F)cc2Cl)CC1 is at least 90%.
met

Does the reported residual activity for NCC(=O)Nc1ccc(-n2nc(C(F)(F)F)cc2-c2ccc3c(ccc4ccccc43)c2)cc1 fall at or above the 90% mark?
met

Please tell me: is the molecule CCNc1nc(Nc2cc(F)c(C(=O)N3CCOCC3)cc2OC)ncc1C(F)(F)F at or over 90% in terms of residual activity?
not met

Entry CCn1c(-c2nonc2N)nc2cncc(CNC3CCNCC3)c21 : is its residual activity no less than 90%?
met

Exam item: decide whether the reported residual activity for c1ccc2c(-c3cnn4cc(-c5ccc(N6CCNCC6)cc5)cnc34)ccnc2c1 is at least 90%.
not met

Given the entry CCCC(CCC)C(=O)O , answer whether its residual activity meets or surpasses 90%.
met

I'd appreciate it if you could say whether O=C(O)c1cc(N=Nc2ccc(S(=O)(=O)Nc3ccccn3)cc2)ccc1O has residual activity at least equal to 90%.
met

Could you tell me if the measured residual activity of CC1=C(CO)C(=O)O[C@@H]([C@@H](C)[C@H]2CC[C@H]3[C@@H]4C[C@H]5O[C@]56[C@@H](O)C=CC(=O)[C@]6(C)C4CC[C@]23C)C1 (some centres undefined) reaches 90% or more?
not met

Given the entry Cc1ccc(-c2ccc3c(ccc4sc5c(c43)NC[C@@H](C)NC5=O)n2)cn1 , answer whether its residual activity meets or surpasses 90%.
not met

Test whether the molecule CC(C)(C#N)c1ccc(N2C(=O)OCc3cnc4ccc(-c5cnc6ccccc6c5)cc4c32)cc1 records residual activity of 90% or higher.
met

Does the molecule Nc1cccc2c1CN(C1CCC(=O)NC1=O)C2=O (centres undefined) have recorded residual activity that is 90% or more?
met

Say whether O=c1c(O)c(-c2ccc(O)c(O)c2)oc2cc(O)c(O)c(O)c12 shows residual activity of 90% or more.
not met

Please tell me: is the molecule Cc1ccc(=O)n(-c2ccccc2)c1 at or over 90% in terms of residual activity?
met

For this molecule, is measured residual activity 90% or higher? NC(=O)c1c(NC(=O)C2CC2)sc2c1CCCC2
not met

---

system_under_test: CAMKK2 (human) (UniProt Q96RR4)
Sequence (Q96RR4 whole entry, looked up): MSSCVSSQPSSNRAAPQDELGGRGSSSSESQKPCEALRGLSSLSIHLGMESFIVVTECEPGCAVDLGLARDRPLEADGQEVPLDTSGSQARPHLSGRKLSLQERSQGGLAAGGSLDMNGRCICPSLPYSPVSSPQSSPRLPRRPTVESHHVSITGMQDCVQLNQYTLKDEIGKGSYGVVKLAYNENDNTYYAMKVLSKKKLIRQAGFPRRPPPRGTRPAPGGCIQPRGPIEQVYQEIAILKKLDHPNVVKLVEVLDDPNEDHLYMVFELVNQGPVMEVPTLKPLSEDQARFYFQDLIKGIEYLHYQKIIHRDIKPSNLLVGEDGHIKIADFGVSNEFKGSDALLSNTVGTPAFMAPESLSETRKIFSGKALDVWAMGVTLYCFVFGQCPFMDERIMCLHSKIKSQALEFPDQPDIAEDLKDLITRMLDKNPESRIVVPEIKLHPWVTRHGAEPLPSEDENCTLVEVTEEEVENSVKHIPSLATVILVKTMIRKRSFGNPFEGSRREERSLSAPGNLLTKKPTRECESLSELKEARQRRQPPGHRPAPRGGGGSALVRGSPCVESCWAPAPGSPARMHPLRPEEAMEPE
test: radiometric filter-binding kinase assay
stated_conditions: compound 1.0 µM
Can you tell me residual activity for the items I'm about to list?
Response body: numeric value in %, unit text excluded.

Recall the reported residual activity of Cc1cccc(-c2nn(C(=S)Nc3ccccc3)cc2-c2ccnc3ccccc23)n1 on CAMKK2 (human) (UniProt Q96RR4) and write it down.
104

Fill: residual activity (CAMKK2 (human) (UniProt Q96RR4)) for this compound Oc1ccc2ccccc2c1SSc1c(O)ccc2ccccc12
98

Give residual activity; test system CAMKK2 (human) (UniProt Q96RR4); compound COc1ccc(-n2ncc3cnc(Nc4cc(OC)c(OC)c(OCCCN5CCN(C)CC5)c4)nc32)cc1
28

Give reported residual activity for Oc1ccc(/C=C/c2cc(O)cc(O)c2)cc1 (CAMKK2 (human) (UniProt Q96RR4))
107

Answer with residual activity of C=CC(=O)N1CCC[C@@H](n2nc(-c3ccc(Oc4ccccc4)cc3)c3c(N)ncnc32)C1 measured for CAMKK2 (human) (UniProt Q96RR4).
109

Give residual activity for this entry on CAMKK2 (human) (UniProt Q96RR4): CCc1cncnc1N1CCN(Cc2nc3cc(C(F)(F)F)ccc3[nH]2)CC1
98

Please report residual activity with CAMKK2 (human) (UniProt Q96RR4) for item FC(F)(F)c1ccc(-c2ccc(Oc3cncc4sc(-c5nn[nH]n5)cc34)cc2)cc1 .
105

State residual activity on CAMKK2 (human) (UniProt Q96RR4). Entry: CNC(=O)C1[C@H]2O[C@@](C)([C@@H]1N)n1c3ccccc3c3c4c(c5c6ccccc6n2c5c31)C(=O)NC4 (some centres not stated)
11

Give the observed residual activity of Cc1cccc(Nc2nn(C)c3ncnc(N)c23)c1 for CAMKK2 (human) (UniProt Q96RR4).
125

Write down the reported residual activity (system: CAMKK2 (human) (UniProt Q96RR4)) of NC(=O)c1cc(-c2ccnc(NC3CCCCC3)c2)nc(N2CCNCC2)c1
99

Find the measured residual activity of C[C@H]1CCCC(=O)CCC/C=C/c2cc(O)cc(O)c2C(=O)O1 with CAMKK2 (human) (UniProt Q96RR4) as test system.
90

# return residual activity of O=C(NOC[C@H](O)CO)c1ccc(F)c(F)c1Nc1ccc(I)cc1Cl (system: CAMKK2 (human) (UniProt Q96RR4))
92

Quote CAMKK2 (human) (UniProt Q96RR4) residual activity for entry N#Cc1c(C2CCNCC2)cc(-c2c(O)cccc2OCC2CC2)nc1N .
106

Report measured residual activity on CAMKK2 (human) (UniProt Q96RR4); entry: O=C(Nc1nc2cc(C(F)(F)F)cc(NC3CC3)n2n1)c1cccnc1
105

Return reported residual activity for target or system CAMKK2 (human) (UniProt Q96RR4), item COc1cc(C(=O)N2CCOCC2)c(F)cc1Nc1ncc(C(F)(F)F)c(NC2CC2)n1 .
40

Report value only: residual activity, CAMKK2 (human) (UniProt Q96RR4), CCn1c(-c2nonc2N)nc2cncc(CNC3CCNCC3)c21
128

Give residual activity only, for Nc1cccc2c1CN(C1CCC(=O)NC1=O)C2=O (configuration not stated) , using CAMKK2 (human) (UniProt Q96RR4) data.
92

Report its residual activity with CAMKK2 (human) (UniProt Q96RR4) as the test system: COc1ccc(N(C(=O)Nc2c(C)cccc2C)c2cc(Nc3ccc(N4CCN(C)CC4)cc3)ncn2)c(OC)c1
89

Look up CAMKK2 (human) (UniProt Q96RR4) data: residual activity of CCNc1nc(Nc2cc(F)c(C(=O)N3CCOCC3)cc2OC)ncc1C(F)(F)F , then report it.
28

Jot down residual activity (CAMKK2 (human) (UniProt Q96RR4)) of Cc1ccc(Sc2cnc(Nc3cccc(Br)n3)s2)cc1C(=O)N1CCN(C(=O)CN)CC1 .
19

Fill in residual activity for CCCCCc1ccc(/C=C/[C@H](O)[C@@H](CO)NC)cc1 tested with CAMKK2 (human) (UniProt Q96RR4).
81

State measured residual activity of the compound c1ccc2c(-c3cnn4cc(-c5ccc(N6CCNCC6)cc5)cnc34)ccnc2c1 with CAMKK2 (human) (UniProt Q96RR4).
13

Fill in residual activity for Cn1c(=O)c2c(ncn2C)n(C)c1=O tested with CAMKK2 (human) (UniProt Q96RR4).
103

Given Cc1cc(SCc2sc(-c3ccc(C(F)(F)F)cc3)nc2C)ccc1OCC(=O)O , report its residual activity on CAMKK2 (human) (UniProt Q96RR4).
86

GET residual activity where system = CAMKK2 (human) (UniProt Q96RR4) and item = CN(C)C/C=C/C(=O)Nc1cccc(C(=O)Nc2ccc(Nc3nccc(-c4cccnc4)n3)cc2)c1
35

Please respond with reported residual activity (system CAMKK2 (human) (UniProt Q96RR4)) for NC(=O)c1ccc(-c2ccc(Oc3cncc4sc(-c5nn[nH]n5)cc34)cc2)cc1 .
84

For CAMKK2 (human) (UniProt Q96RR4), give residual activity of the listed compound: CNc1nc(-c2ccc3c(N)n[nH]c3c2)cc(N2C[C@@H](C(=O)NC3CCCCC3)CC[C@H]2C)n1
99

Jot down residual activity (CAMKK2 (human) (UniProt Q96RR4)) of Cn1nc(Nc2ccc(F)cc2)c2c(N)ncnc21 .
112

Give residual activity for Cc1ccc(=O)n(-c2ccccc2)c1 tested on CAMKK2 (human) (UniProt Q96RR4).
97

Report value only: residual activity, CAMKK2 (human) (UniProt Q96RR4), O=c1c(O)c(-c2ccc(O)c(O)c2)oc2cc(O)c(O)c(O)c12
72

Using CAMKK2 (human) (UniProt Q96RR4) as the test system, report measured residual activity of CC(C)(C#N)c1ccc(N2C(=O)OCc3cnc4ccc(-c5cnc6ccccc6c5)cc4c32)cc1 .
69

Answer with residual activity of COc1cc(O)c2c(c1)/C=C/C[C@H](O)[C@H](O)C(=O)/C=C\C[C@H](C)OC2=O measured for CAMKK2 (human) (UniProt Q96RR4).
57
